Test: Half life in mouse at 400 mg/kg, ip
Format: ADME, organism-based
Conditions: in vivo
For each of the compounds below, state its half-life.
Numbers only, in h.

CN(C)c1ccc(C(=O)NCCCCCNC(=O)CS)cc1 :: 1.98

Moving on to the next compound.
Measured half-life of O=C(CS)NCCCCCC(=O)Nc1cccc2cccnc12 : 2.2

* * *

Biological target: Histone deacetylase 1 (Homo sapiens)
Sequence (Q13547 whole entry): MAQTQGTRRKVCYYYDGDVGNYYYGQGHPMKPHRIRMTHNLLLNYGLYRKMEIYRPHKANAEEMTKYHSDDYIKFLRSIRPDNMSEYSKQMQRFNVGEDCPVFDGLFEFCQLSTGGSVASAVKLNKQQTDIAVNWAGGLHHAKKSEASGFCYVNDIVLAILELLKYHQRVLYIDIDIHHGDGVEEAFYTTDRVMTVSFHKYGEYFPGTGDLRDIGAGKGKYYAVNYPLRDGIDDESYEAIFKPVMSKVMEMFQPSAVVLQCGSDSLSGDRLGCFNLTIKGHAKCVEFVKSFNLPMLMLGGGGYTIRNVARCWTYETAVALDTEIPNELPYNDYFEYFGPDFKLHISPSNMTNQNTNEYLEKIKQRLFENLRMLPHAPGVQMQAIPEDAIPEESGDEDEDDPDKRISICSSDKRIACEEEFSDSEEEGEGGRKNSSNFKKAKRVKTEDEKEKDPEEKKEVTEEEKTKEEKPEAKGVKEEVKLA
Test: Inhibition of human HDAC1 using FAM-labeled acetylated peptide as substrate incubated for 17 hrs by fluorescence based assay
For each of the compounds below, state its IC50.
Kindly report the value followed by its unit.

Sample answers from the record:
N[C@@H](Cc1ccccc1)C(=O)Nc1ccccc1-c1ccc(NC(=O)CCCCCNC(=O)CS)cc1 :: 2.76 µM
NCC(=O)Nc1ccccc1-c1ccc(NC(=O)CCCCCNC(=O)CS)cc1 :: 3.96 µM

Moving on to the next compound.
Measured IC50 of N[C@@H](Cc1c[nH]c2ccccc12)C(=O)Nc1ccccc1-c1ccc(NC(=O)CCCCCNC(=O)CS)cc1 : 7.09 µM
